- Test system: PBS pH 7.4 kinetic solubility, LC-UV/MS
- ASSAY SUMMARY: qHTS for Inhibitors of mutant isocitrate dehydrogenase 1 (IDH1): Aqueous Kinetic Solubility
- CONDITION SET: hits give high values
MEASURED ENDPOINT: solubility

## Input Param item = Cc1ccccc1C(C(=O)NC1CCCC1)N(C(=O)Cn1cnc2ccccc21)c1cccc(F)c1 (stereo unspecified) ; retrieve measured solubility.
## Output 54.3 µM

All values here come from PubChem BioAssay AID624462.
